System: HCT-116 colon
Test: NCI tumour cell line growth inhibition, 48 h
Recorded measurements of TGI, one per entry
observable: TGI

compound="Clc1cc2nnn(C3CCCCO3)c2cc1Cl (stereo unspecified)" experimental_value="> 100 µM"
compound=Cc1ccc(NC(=O)CC(=O)n2nc(-c3ccccc3)c(N=Nc3ccccc3C(=O)O)c2-c2ccccc2)cc1 experimental_value="> 100 µM"
compound=O=Cc1c[nH]c2ccc(-c3csc4ccccc34)cc12 experimental_value="> 100 µM"
compound=CCCC(=O)n1[nH]c(=O)n(C(C)(C)C)c1=O experimental_value="> 100 µM"
compound=O=[N+]([O-])c1ccc(Oc2cccc(C(F)(F)F)c2)c([N+](=O)[O-])c1 experimental_value="12.7 µM"
compound="CS(=O)/C(C#N)=C\\C=C\\c1cccc(Cl)c1 (stereo unspecified)" experimental_value="4.73 µM"
compound="Cc1ccc([S+](c2ccccc2)c2cc(C)ccc2C)cc1 (stereo unspecified)" experimental_value="> 100 µM"
compound="CCOC(=O)CCC(NC(=O)c1ccc(OCc2ccc3nc(OC)c(OC)nc3c2)cc1)C(=O)OCC (stereo unspecified)" experimental_value="> 100 µM"
compound="CC(N)CN.CC(N)CN.[Cl-].[O]=[Os+2]=[O] (stereo unspecified)" experimental_value="> 100 µM"
compound=COC(=N)c1ncn(Cc2ccccc2)c1N experimental_value="> 100 µM"
compound="Cc1ccc(NC(C(=O)c2ccccc2)c2ccccc2)cc1 (stereo unspecified)" experimental_value="12.4 µM"

Values from PubChem BioAssay (NCI)
